Could you please report measured Relative phosphorylation (% of highest signal) for the items listed next?
# Target or system: LYN (Homo sapiens)
# Sequence (P07948 whole entry): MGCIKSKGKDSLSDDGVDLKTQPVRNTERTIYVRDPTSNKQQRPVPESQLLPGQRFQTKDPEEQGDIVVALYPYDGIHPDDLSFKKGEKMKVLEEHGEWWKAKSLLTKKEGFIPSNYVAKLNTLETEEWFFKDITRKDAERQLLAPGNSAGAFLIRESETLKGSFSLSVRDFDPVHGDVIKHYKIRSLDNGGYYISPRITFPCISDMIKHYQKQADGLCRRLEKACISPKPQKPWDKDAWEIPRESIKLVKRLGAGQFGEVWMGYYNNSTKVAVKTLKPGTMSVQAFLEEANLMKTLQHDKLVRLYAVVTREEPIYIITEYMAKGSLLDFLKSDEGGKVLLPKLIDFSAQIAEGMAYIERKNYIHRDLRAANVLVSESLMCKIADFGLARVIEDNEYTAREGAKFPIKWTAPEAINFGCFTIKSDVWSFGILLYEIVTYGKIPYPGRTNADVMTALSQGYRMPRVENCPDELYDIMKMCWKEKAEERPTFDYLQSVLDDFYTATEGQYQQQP
# Measurement notes: PamChip microarray peptide phosphorylation
# Experimental parameters: peptide substrate phosphorylated by LYN

Give the measured Relative phosphorylation (% of highest signal) of DDR1_506_518 (LLLSNPAYRLLLA; UniProt Q08345 506-518, looked up, fragment) .
-1.0 % of highest signal

Now the same for PERI_458_470 (QRSELDKSSAHSY; UniProt P41219 458-470, looked up, fragment)
-0.0931 % of highest signal

Try this substance too: VGFR1_1046_1058_Y1048F (DIFKNPDYVRKGD; UniProt P17948 1046-1058, looked up, variant Y1048F)
-0.0478 % of highest signal

Then this substance: STAT1_694_706 (DGPKGTGYIKTEL; UniProt P42224 694-706, looked up, fragment)
-0.0105 % of highest signal

And for VGFR2_944_956 (RFRQGKDYVGAIP; UniProt P35968 944-956, looked up, fragment) ?
-0.364 % of highest signal

Another: ODBA_340_352_D340K (KDSSAYRSVDEVN; UniProt P12694 340-352, looked up, variant D340K)
0.112 % of highest signal

Follow-up item: VINC_815_827 (KSFLDSGYRILGA; UniProt P18206 815-827, looked up, fragment)
-0.3 % of highest signal

Param item: VGFR2_1207_1219_C1208S (VSDPKFHYDNTAG; UniProt P35968 1207-1219, looked up, variant C1208S)
-0.213 % of highest signal

Please answer likewise for EPHA2_581_593 (QLKPLKTYVDPHT; UniProt P29317 581-593, looked up, fragment)
-0.186 % of highest signal

Now give it for EPHA4_921_933 (QAIKMDRYKDNFT; UniProt P54764 921-933, looked up, fragment) too.
-0.126 % of highest signal

Then this substance: ZAP70_485_497 (ALGADDSYYTARS; UniProt P43403 485-497, looked up, fragment)
1.0 % of highest signal

Repeat for the following substance: VGFR1_1206_1218 (GSSDDVRYVNAFK; UniProt P17948 1206-1218, looked up, fragment)
-0.1 % of highest signal

VGFR2_1168_1180 (AQQDGKDYIVLPI; UniProt P35968 1168-1180, looked up, fragment) , same question.
0.147 % of highest signal

Same question for STAT6_634_646 (MGKDGRGYVPATI; UniProt P42226 634-646, looked up, fragment) please.
-0.3 % of highest signal

Quick one: EPOR_361_373 (SEHAQDTYLVLDK; UniProt P19235 361-373, looked up, fragment)
1.2 % of highest signal
